Procedure summary: NCI Yeast Anticancer Drug Screen. Data for the sgs1 mgt1 strain (AID 161);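 note: 0% = growth of cultures given vehicle only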
Condition description: S. cerevisiae sgs1 mgt1 strain, at 50.0 µM (retest, dose inferred, filed as 5.0), active compounds read high
About 79,000 compounds went through this panel and 15% of them were active in at least one assay; those are over-represented in the sample as a whole.
Metric name: growth inhibition (%)
Numeric answer only, unit % assumed.

Some compounds with recorded growth inhibition:
INSERT INTO measurements (compound, metric_name, readout_unit, reported_measurement) VALUES
  ('CCOP(=S)(OCC)SSSP(=S)(OCC)OCC', 'growth inhibition', '%', 78),
  ('CCC[CH2][Sn]1([CH2]CCC)[O]CC(COc2c(Cl)cc(Cl)cc2Cl)[O]1 (stereo not given)', 'growth inhibition', '%', 97),
  ('COC1CC2C=C(C)/C=C/C=C/C(=O)NC(c3ccccc3)C/C=C/CCC(O)CC(=O)C2=C1O (stereo not given)', 'growth inhibition', '%', 99),
  ('CCCCOOC(=O)c1ccccc1C(=O)OOCCCC', 'growth inhibition', '%', 100);

Now, please, on to the next compound.
Reported growth inhibition ( C[CH2][Sn]([O][Sn]([Cl])([CH2]C)[c]1ccccc1)[c]1ccccc1 (stereo not given) ) = 96

---

Procedure summary: NCI Yeast Anticancer Drug Screen. Data for the bub3 strain (AID 167)
Condition description: S. cerevisiae bub3 mutant strain, at 50.0 µM (retest, dose inferred, filed as 5.0)
Procedure: Growth inhibition of yeast strains with defined genetic alterations is measured as a screen for potential anti-cancer activity. Selected strains with alterations in DNA damage repair or cell cycle control were exposed to compounds and growth inhibition was measured relative to vehicle treated controls. The strain used in this assay is bub3
This is part of a sample that, as a whole, favours compounds with a hit. Of some 79,000 tested, about 15% had one in any assay. The source made the active and inactive calls. Rule as the data show it: active = growth inhibition above about 70%; inactive = the rest.
Assign a class; possible classes are Yes = active, No = inactive

// below: answered molecules
INSERT INTO assay_data (molecule, assigned_label) VALUES
  ('Oc1c(I)cc(I)cc1I', 'Yes'),
  ('N#CCC[CH2][Sn]([Br])([Br])[c]1ccccc1', 'No'),
  ('COC1CC2C=C(C)/C=C/C=C/C(=O)NC(c3ccccc3)C/C=C/CCC(O)CC(=O)C2=C1O (stereo not given)', 'Yes'),
  ('CCOP(=O)(O)C(Nc1ccc(N=Nc2ccccc2)cc1)c1ccc(C(Nc2ccc(N=Nc3ccccc3)cc2)P(=O)(O)OCC)cc1 (stereo not given)', 'No'),
  ('CNP1(=O)OC(c2ccccc2)=CCN1CCCl (stereo not given)', 'No');

Okay, next one:
Per the assay record, what outcome was assigned to [C-]#[O+].[C-]#[O+].[C-]#[O+].[C-]#[O+].[Mo].c1cnc2c(c1)ccc1cccnc12 ?
No

---

Procedure summary: NCI Yeast Anticancer Drug Screen. Data for the bub3 strain (AID 167)
Condition description: S. cerevisiae bub3 mutant strain, at 50.0 µM (retest, dose inferred, filed as 5.0), active compounds read high
This is part of a sample that, as a whole, favours compounds with a hit. Of some 79,000 tested, about 15% had one in any assay.
Metric name: growth inhibition (%)
Lab book: enter the figure in %, no units written.

INSERT INTO results (molecule, reported_measurement) VALUES
  ('O=C1N[C@H]2[C@H](O)[C@H](O)[C@@H](O)[C@H](O)[C@@H]2c2cc3c(c(O)c21)OCO3', 60);

The value of growth inhibition measured for the molecule CN(C)C(=S)[S][Hg][c]1ccccc1 turned out to be 100

Entry CCC[CH2][Sn]1([CH2]CCC)[O]CC(CN2CCCCC2)[O]1 (stereo unspecified) ; growth inhibition = 96

Looking up O=[N+]([O-])c1ccc2c3c(cccc13)CC2 , I see its growth inhibition listed as 54

Record summary for CCC[CH2][Sn]1([CH2]CCC)[O]CC(Cc2ccccc2)[O]1 (stereo unspecified) : reported growth inhibition = 98

Consider O=[N+]([O-])c1cc(Cl)ccc1S(=O)(=O)F . Its measured growth inhibition is 98

---

Procedure summary: NCI Yeast Anticancer Drug Screen. Data for the mlh1 rad18 strain (AID 175)
Condition description: S. cerevisiae mlh1 rad18 strain growth inhibition; at 50.0 µM
The panel holds about 79,000 compounds, 15% with a hit somewhere; the sample as a whole holds those more often. The source made the active and inactive calls. Rule as the data show it: active = growth inhibition above about 70%; inactive = the rest.
Return exactly one item of active, inactive

Take a look at these entries with their results.
INSERT INTO measurements (compound, assigned_label) VALUES
  ('COC(=O)C1=C(C(=O)OC)C2(C)OC1c1ccccc12 (stereo not given)', 'active'),
  ('CCOP(=O)(OCC)/C(C#N)=C/c1ccoc1', 'inactive'),
  ('CC[N+](C)(CC)CCC(C(=O)NC)(c1ccccc1)c1ccccc1', 'inactive'),
  ('CC(C)(C)C1=CC(=C(P(=O)(O)O)P(=O)(O)O)C=C(C(C)(C)C)C1=O', 'inactive'),
  ('NS(=O)(=O)c1ccc([As](=O)(O)c2ccccc2)cc1', 'inactive');

Proceed to the following item.
Identify the outcome logged in this assay for the compound shown: CO/N=C1\CC(C)N2C(=O)C(C(C)C)NC(=O)C(NC(=O)c3c4nc5c(C(=O)NC6C(=O)NC(C(C)C)C(=O)N7C(C)CC(O)C7C(=O)N(C)CC(=O)N(C)C(C(C)C)C(=O)OC6C)ccc(C)c5oc-4c(C)c(=O)c3N)C(CO)OC(=O)C(C)N(C)C(=O)CN(C)C(=O)C12 (stereo not given)
inactive

---

Known growth inhibition of a selection of compounds
Procedure summary: NCI Yeast Anticancer Drug Screen. Data for the sgs1 mgt1 strain (AID 161);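 note: 0% = growth of cultures given vehicle only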
Condition description: S. cerevisiae sgs1 mgt1 strain, at 50.0 µM, active compounds read high
The panel holds about 79,000 compounds, 15% with a hit somewhere; the sample as a whole holds those more often.
Quick note: give the figure in %, leave out the unit.

Worked examples, 5 compounds total:
INSERT INTO assay_data (compound, reported_measurement) VALUES
  ('CC(=O)OCCCn1nc(COC(N)=O)c2c1CC(C)CC2=O (centres undefined)', -8.25),
  ('ClCC[Se](Cl)(Cl)c1ccccc1', 72),
  ('Clc1cc[c]([Pb]([Cl])([Cl])[c]2ccc(Cl)cc2)cc1', 27.9),
  ('Cc1ccc(CCl)c(C)c1', -6.95),
  ('COC1CC(C)C(OC)C2=CC(=O)C=C(NC(=O)/C(C)=C/C=C\C(C)C(OC(N)=O)/C(C)=C\C(C)C1OC)C2=O (centres undefined)', 92.5);

Noted for CCN(CCCl)c1cc(C(=O)NCCCN(C)CCCNC(=O)c2cc(N(CC)CCCl)c([N+](=O)[O-])cc2[N+](=O)[O-])c([N+](=O)[O-])cc1[N+](=O)[O-] : its growth inhibition reads -17

Please fill in: growth inhibition reported for CCOP(=O)(CCC[N+](=O)[O-])OCC = -18.7

The compound listed as O=C(CBr)OC1CCCCC1 has a reported growth inhibition of 87.4

What the record says about CC(N)Cc1ccc(Cl)cc1 (centres undefined) : growth inhibition is 1.9

Input COC(=O)C1C(=O)CC2N(C)C1C(C)(C)C2(C)C (centres undefined) . Output growth inhibition: 60.6

growth inhibition recorded for this compound, BrP(NC1CCCCCC1)(c1ccccc1)(c1ccccc1)c1ccccc1 , is 99.2

Memo: CCCCN=C=S , reported growth inhibition: 21.8

Value of measured growth inhibition for the entry COC(=O)c1nc(-c2ccc3c(n2)C(=O)C(N)=C(OC)C3=O)c(N)c(-c2ccc(OC)c(OC)c2O)c1C : 36.1

Kindly note the recorded growth inhibition for CN1CCOC(c2ccccc2)c2ccsc2CC1 (centres undefined) , which is 35.2

get_value(item= CCOc1ccc([N+](=O)[O-])cc1CNCCBr , readout=growth inhibition) returns -0.45

Value of growth inhibition reported for the compound COC(=O)C1(C(=O)OC)Cc2ccc(C)cc2C2=C1C(=O)c1ccccc1C2=O is 5.5

The compound identified as ClCCCBr registered its growth inhibition at -10.8

The recorded growth inhibition for COc1ccc2c(c1O)CNCC2c1ccc(O)cc1O (centres undefined) is -7.25

compound CN(C)N(P(N)(Cl)(c1ccccc1)c1ccccc1)P(N)(Cl)(c1ccccc1)c1ccccc1 , growth inhibition observed: 44.9

Reported growth inhibition of COc1cc(C2c3cc4c(cc3OC(N3CCOCC3)C2C)OCO4)cc(OC)c1OC (centres undefined) : -1.05

---

Procedure summary: NCI Yeast Anticancer Drug Screen. Data for the mec2-1 strain (AID 157)
Condition description: S. cerevisiae mec2-1 strain, at 50.0 µM, active compounds read high
Compounds without any hit were thinned out: in the full panel of roughly 79,000, 15% have a hit.
Metric name: growth inhibition (%)
Output spec: scalar in %, unitless text.

Known results for compounds:
INSERT INTO assay_data (compound, reported_measurement) VALUES
  ('N#CCC[CH2][Sn]([Br])([Br])[c]1ccccc1', 80.1),
  ('O=C=Nc1cccc(S(=O)(=O)F)c1', 4.15),
  ('O=[N+]([O-])/C=C/c1ccccc1Cl', 92.8),
  ('CN(C)N(P(N)(Cl)(c1ccccc1)c1ccccc1)P(N)(Cl)(c1ccccc1)c1ccccc1', 54.5),
  ('CC(C)CC(NC(=O)C(Cc1ccccc1)NC(=O)CNC(=O)CNC(=O)C(N)Cc1ccc(O)cc1)C(=O)O (stereo not drawn)', 2.85),
  ('C[CH2][Hg]', 99.5),
  ('CC1CCN(CCC(=O)CC(c2ccccc2)c2c(O)c3ccccc3oc2=O)CC1 (stereo not drawn)', 83.8),
  ('[Cl][Tl]', 5.2);

Field growth inhibition (entry COC(=O)Cc1ccccc1 ) reads 15.1

Record summary for CC(Cc1ccc(O)cc1)NCC(O)c1ccc(O)c(O)c1 (stereo not drawn) : reported growth inhibition = 15.3

response.value for [CH3][Sn]1([CH3])[c]2ccccc2Oc2cccc[c]21 (field: growth inhibition) = 1.65

The value of growth inhibition measured for the compound NCCC1CCc2[nH]c3ccccc3c2C1 (stereo not drawn) turned out to be -6.1

The reported value for CC(C)OP(=O)(OC(C)C)C(=O)Nc1cc(Cl)ccc1Cl in terms of growth inhibition is 14.6
